Target: rat-species vanilloid receptor 1 (VR1/TRPV1) (Rattus norvegicus, UniProt O35433)
Construct: endogenous in cells; host or cells: primary cells dissociated from rat dorsal root ganglia (DRG)
Sequence (O35433 whole entry): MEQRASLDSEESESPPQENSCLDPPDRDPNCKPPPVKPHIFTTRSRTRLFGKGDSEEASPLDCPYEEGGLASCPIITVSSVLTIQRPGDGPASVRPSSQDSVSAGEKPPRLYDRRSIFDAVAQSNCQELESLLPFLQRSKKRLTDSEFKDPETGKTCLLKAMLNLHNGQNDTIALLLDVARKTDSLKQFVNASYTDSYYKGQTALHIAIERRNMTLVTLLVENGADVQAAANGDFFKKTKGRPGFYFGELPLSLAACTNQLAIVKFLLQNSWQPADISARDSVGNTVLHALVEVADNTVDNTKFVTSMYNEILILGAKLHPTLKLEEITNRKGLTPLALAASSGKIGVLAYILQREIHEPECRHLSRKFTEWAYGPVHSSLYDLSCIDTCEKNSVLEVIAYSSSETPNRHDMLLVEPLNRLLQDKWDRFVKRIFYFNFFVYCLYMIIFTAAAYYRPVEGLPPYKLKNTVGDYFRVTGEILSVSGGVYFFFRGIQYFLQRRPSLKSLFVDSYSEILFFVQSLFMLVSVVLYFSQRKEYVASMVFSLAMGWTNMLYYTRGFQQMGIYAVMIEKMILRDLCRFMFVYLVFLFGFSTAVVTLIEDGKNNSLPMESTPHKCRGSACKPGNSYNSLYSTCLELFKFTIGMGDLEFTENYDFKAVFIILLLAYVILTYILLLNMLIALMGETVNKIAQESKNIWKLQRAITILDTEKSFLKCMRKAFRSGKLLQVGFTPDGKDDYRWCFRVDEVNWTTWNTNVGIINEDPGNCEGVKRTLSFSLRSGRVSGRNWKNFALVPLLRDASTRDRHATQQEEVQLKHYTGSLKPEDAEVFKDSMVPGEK
Test: Functional testing on vanilloid receptor 1 (VR1/TRPV1): FLIPR Ca2+ inflow assay in rat dorsal root ganglia cells (% activation / % inhibition vs capsaicin)
Type: cell-based
Details: stimulation compared to 10 μM CP (capsaicin)
From the text: […] In the FLIPR assay, the Ca^2+ inflow is quantified using a Ca^2+-sensitive dye (type Fluo-4, Molecular Probes Europe BV, Leiden, Netherlands) in a fluorescent imaging plate reader (FLIPR, Molecular Devices, Sunnyvale, USA), as described hereinafter. […] The agonistic or antagonistic effect of the substances to be tested can be determined on the rat-species vanilloid receptor 1 (VR1/TRPV1) using the following assay. […]
Assignment: determine reported activation at 10 µM for the given compounds.
Give bare numbers, in %.

Hey, can you go through the list below and give me activation at 10 µM for every item?
1. CC(C)(C)c1ccc(NC(=O)N2CCC3(CC2)CC(c2ccccc2F)=NO3)cc1 [Compound 352]
2. COc1ccccc1NC(=O)N1CCC2(CC1)CC(c1ccc(C(C)(C)C)cc1)=NO2 [Compound 201]
3. CCc1ccc(NC(=O)N2CCC3(CC2)CC(c2ccc(C(F)(F)F)cc2)=NO3)cc1 [Compound 167]
4. CSc1ccccc1NC(=O)N1CCC2(CC1)CC(c1ccc(C(C)(C)C)cc1)=NO2 [Compound 56]
5. CC(C)(C)c1ccc(/C(=C/C(=O)N2CCC3(CC2)CC(c2ccccc2F)=NO3)c2ccc(Cl)c(Cl)c2)cc1 [Compound 359]
6. FC(F)(F)c1cccc(NC(=S)N2CCC3(CC2)CC(c2ccccc2)=NO3)c1 [Compound 262]
7. O=C(Nc1ccccc1)N1CCC2(CC1)CC(c1ccc(Cl)cc1)=NO2 [Compound 3]

[7, -0.43, -0.43, -0.04, 3, -0.54, -0.73]
